- System Under Test: pooled human IgG
Hi there, I'd appreciate the recorded Enzyme Activity Endpoint Assay (purified): Fc for every entry that follows.
Numbers only, in ng/µL.

Protein | Quantitative Readout
PRT-131 (protein) MRNATEAYAKEVPHQITSVWTKGVTPLTPEQFRYNNEDVIHAPYLAHQGWYDITKAFNGKDNLLCGAATAGNMLHWWFDQNKTEIEAYLKKHPEKQKIIFNNQELFDLKAAIDTKDSQTNSQLFNYFRDKAFPNLSARQLGVMPDLVLDMFINGYYLNVFKTQSTDVNRPYQDKDKRGGIFDAVFTRGDQTTLLTARHDLKNKGLNEISTIIKQELTEGRALALSHTYANVSISHVINLWGADFNAEGNLEAIYVTDSDANASIGMKKYFVGINAHGKVAISAKKIEGENIGAQVLGLFTLSSGKDIWQKLS | 201

Alright, here's another protein for you.
Entry PRT-314 (protein) MQITSVWTKGVTPLTPEQFRENNEDVIHAPYLAHQGWYDITKAFDGKDNLLCGAATAGNMLHWWFDQNKTEIEAYLSKHPEKQKIIFGNQELFDLKAAIDTKDSQTNSQLFDYFRDKAFPNLSARQLGVMPDLVLDMFINGYYLNVGKTQSTDVNRPYQDKDKRGGIFDAVFTRGDQTTLLTARHDLKNKGLNDISTIIKQELTEGRALALSHTYANVSISHVINLWGADFNAEGELEAIYVTDSDANPSIGMKKYFVGRNAHGHVAISAKKIEGENIGAQVLGLFTLSSGKDQWQKLS , Enzyme Activity Endpoint Assay (purified): Fc reported as 286
